This collection of values is drawn from paper PMC9551036.

Assay text: Pharmacokinetic analyses in mouse
Format: in vivo
Setup conditions: mouse, plasma, po, 30 mg/kg, mouse, 30 mg/kg p.o., NCA, individual animals; read-out: AUC
Property: AUC
Put down the number, then write its unit next to it.

compound Cc1ncsc1-c1ccc(C(CCC(C)CCN2CCC(c3ccc4c(c3)n(C3CCCC3)c3nc(=O)c5c(Br)cccc5n43)CC2)NC(=O)C2CC(O)CN2C(=O)C(NC(=O)C2(F)CC2)C(C)(C)C)cc1 (stereo not shown) , AUC observed: 47.5 µM·h

* * *

Tested on: P-gp
Assay text: Bidirectional permeability measurement in Caco-2 cells
Type: in vitro ADME
Setup conditions: human, Caco-2, pH 7.4, with zosuquidar 5 µM, Modified Caco-2, b to a, + PGPi (Zosuquidar); read-out: Modified Caco-2 Pba + PGPi (Zosuquidar)
Property: Papp B→A at 2 h, 1 µM

Lab book: Papp B→A at 2 h, 1 µM of Cc1ncsc1-c1ccc([C@H](CCCCCN2CCC(c3ccc4c(c3)n(C3CCCC3)c3nc(=O)c5c(Br)cccc5n43)CC2)NC(=O)[C@@H]2C[C@@H](O)CN2C(=O)[C@@H](NC(=O)C2(F)CC2)C(C)(C)C)cc1 [compound 11] noted as 24 ×10⁻⁶ cm/s

Record Cc1ncsc1-c1ccc([C@H](COC(C)CN2CCC(c3ccc4c(c3)n(C3CCCC3)c3nc(=O)c5c(Br)cccc5n43)CC2)NC(=O)[C@@H]2C[C@@H](O)CN2C(=O)[C@@H](NC(=O)C2(F)CC2)C(C)(C)C)cc1 (stereo partly drawn) [compound 9] , field Papp B→A at 2 h, 1 µM: 19 ×10⁻⁶ cm/s

Quick note, Papp B→A at 2 h, 1 µM for Cc1ncsc1-c1ccc(C(CCC(C)CCN2CCC(c3ccc4c(c3)n(C3CCCC3)c3nc(=O)c5c(Br)cccc5n43)CC2)NC(=O)C2CC(O)CN2C(=O)C(NC(=O)C2(F)CC2)C(C)(C)C)cc1 (stereo not drawn) [ACBI2] landed at 11 ×10⁻⁶ cm/s

* * *

Tested on: VCB: PROTAC: SMARCA4^BD ternary complex
Assay text: TR-FRET ternary complex affinity and cooperativity, SMARCA4
Assay type: binding, human
Setup conditions: ratio TR-FRET EC50 / TR-FRET EC50 +VCB measured in the same run, SMARCA4BD
Label label 1 when cooperativity α (SMARCA4BD) is strictly below 4; at or above that, label label 0.

Does "Cc1ncsc1-c1ccc(CNC(=O)[C@@H]2C[C@@H](O)CN2C(=O)[C@@H](NC(=O)C2(F)CC2)C(C)(C)C)c(OCCN2CCC(c3ccc4c(c3)n(C3CCCC3)c3nc(=O)c5c(Br)cccc5n43)CC2)c1" have cooperativity α (SMARCA4BD) strictly under 4?
label 1

I'd appreciate it if you could check whether "Cc1ncsc1-c1ccc([C@H](CCCCCN2CCC(c3ccc4c(c3)n(C3CCCC3)c3nc(=O)c5c(Br)cccc5n43)CC2)NC(=O)[C@@H]2C[C@@H](O)CN2C(=O)[C@@H](NC(=O)C2(F)CC2)C(C)(C)C)cc1" has cooperativity α (SMARCA4BD) smaller than 4.
label 0

Strictly below 4: is that where cooperativity α (SMARCA4BD) of "Cc1ncsc1-c1ccc([C@H](CC[C@@H](C)CCN2CCC(c3ccc4c(c3)n(C3CCCC3)c3nc(=O)c5c(Br)cccc5n43)CC2)NC(=O)[C@@H]2C[C@@H](O)CN2C(=O)[C@@H](NC(=O)C2(F)CC2)C(C)(C)C)cc1" sits?
label 0

Consider the molecule "Cc1ncsc1-c1ccc([C@H](CCCCN2CCC(c3ccc4c(c3)n(C3CCCC3)c3nc(=O)c5c(Br)cccc5n43)CC2)NC(=O)[C@@H]2C[C@@H](O)CN2C(=O)[C@@H](NC(=O)C2(F)CC2)C(C)(C)C)cc1" . Is its cooperativity α (SMARCA4BD) strictly less than 4?
label 1

Input "Cc1ncsc1-c1ccc([C@H](COCCCN2CCC(c3ccc4c(c3)n(C3CCCC3)c3nc(=O)c5c(Br)cccc5n43)CC2)NC(=O)[C@@H]2C[C@@H](O)CN2C(=O)[C@@H](NC(=O)C2(F)CC2)C(C)(C)C)cc1" ; condition: cooperativity α (SMARCA4BD) strictly below 4. Does it hold?
label 1

Report whether reported cooperativity α (SMARCA4BD) is lower than 4 (strictly) for "Cc1ncsc1-c1ccc([C@H](COCCN2CCC(c3ccc4c(c3)n(C3CCCC3)c3nc(=O)c5c(Br)cccc5n43)CC2)NC(=O)[C@@H]2C[C@@H](O)CN2C(=O)[C@@H](NC(=O)C2(N(C)C)CC2)C(C)(C)C)cc1"
label 1

Does the reported cooperativity α (SMARCA4BD) of the following molecule sit strictly below 4? "Cc1ncsc1-c1ccc(CNC(=O)[C@@H]2C[C@@H](O)CN2C(=O)[C@@H](NC(=O)C2(F)CC2)C(C)(C)C)c(OCCOCCOCCOCCN2CCC(c3ccc4c(c3)n(C3CCCC3)c3nc(=O)c5c(Br)cccc5n43)CC2)c1"
label 0

Dear colleague, could you confirm whether cooperativity α (SMARCA4BD) of Cc1ncsc1-c1ccc([C@H](COC(C)CN2CCC(c3ccc4c(c3)n(C3CCCC3)c3nc(=O)c5c(Br)cccc5n43)CC2)NC(=O)[C@@H]2C[C@@H](O)CN2C(=O)[C@@H](NC(=O)C2(N(C)C)CC2)C(C)(C)C)cc1 (stereo partly drawn) falls below 4? Thanks.
label 1

* * *

Assay text: Pharmacokinetic analyses in mouse
Type: in vivo
Setup conditions: mouse, plasma, iv, 5 mg/kg, mouse, 5 mg/kg i.v., NCA, individual animals; read-out: Vss
Property: Vd (L/kg)
The answer is to be given in L/kg; state only the numeric part.

The compound listed as "Cc1ncsc1-c1ccc([C@H](CCCCCN2CCC(c3ccc4c(c3)n(C3CCCC3)c3nc(=O)c5c(Br)cccc5n43)CC2)NC(=O)[C@@H]2C[C@@H](O)CN2C(=O)[C@@H](NC(=O)C2(F)CC2)C(C)(C)C)cc1" shows Vd equal to 0.435

The value of Vd measured for the compound Cc1ncsc1-c1ccc(C(CCC(C)CCN2CCC(c3ccc4c(c3)n(C3CCCC3)c3nc(=O)c5c(Br)cccc5n43)CC2)NC(=O)C2CC(O)CN2C(=O)C(NC(=O)C2(F)CC2)C(C)(C)C)cc1 (centres unmarked) turned out to be 0.536

* * *

Kindly state SMARCA2 Dmax for each of the entries shown.
Test system: SMARCA2 (Homo sapiens)
Sequence (P51531 whole entry): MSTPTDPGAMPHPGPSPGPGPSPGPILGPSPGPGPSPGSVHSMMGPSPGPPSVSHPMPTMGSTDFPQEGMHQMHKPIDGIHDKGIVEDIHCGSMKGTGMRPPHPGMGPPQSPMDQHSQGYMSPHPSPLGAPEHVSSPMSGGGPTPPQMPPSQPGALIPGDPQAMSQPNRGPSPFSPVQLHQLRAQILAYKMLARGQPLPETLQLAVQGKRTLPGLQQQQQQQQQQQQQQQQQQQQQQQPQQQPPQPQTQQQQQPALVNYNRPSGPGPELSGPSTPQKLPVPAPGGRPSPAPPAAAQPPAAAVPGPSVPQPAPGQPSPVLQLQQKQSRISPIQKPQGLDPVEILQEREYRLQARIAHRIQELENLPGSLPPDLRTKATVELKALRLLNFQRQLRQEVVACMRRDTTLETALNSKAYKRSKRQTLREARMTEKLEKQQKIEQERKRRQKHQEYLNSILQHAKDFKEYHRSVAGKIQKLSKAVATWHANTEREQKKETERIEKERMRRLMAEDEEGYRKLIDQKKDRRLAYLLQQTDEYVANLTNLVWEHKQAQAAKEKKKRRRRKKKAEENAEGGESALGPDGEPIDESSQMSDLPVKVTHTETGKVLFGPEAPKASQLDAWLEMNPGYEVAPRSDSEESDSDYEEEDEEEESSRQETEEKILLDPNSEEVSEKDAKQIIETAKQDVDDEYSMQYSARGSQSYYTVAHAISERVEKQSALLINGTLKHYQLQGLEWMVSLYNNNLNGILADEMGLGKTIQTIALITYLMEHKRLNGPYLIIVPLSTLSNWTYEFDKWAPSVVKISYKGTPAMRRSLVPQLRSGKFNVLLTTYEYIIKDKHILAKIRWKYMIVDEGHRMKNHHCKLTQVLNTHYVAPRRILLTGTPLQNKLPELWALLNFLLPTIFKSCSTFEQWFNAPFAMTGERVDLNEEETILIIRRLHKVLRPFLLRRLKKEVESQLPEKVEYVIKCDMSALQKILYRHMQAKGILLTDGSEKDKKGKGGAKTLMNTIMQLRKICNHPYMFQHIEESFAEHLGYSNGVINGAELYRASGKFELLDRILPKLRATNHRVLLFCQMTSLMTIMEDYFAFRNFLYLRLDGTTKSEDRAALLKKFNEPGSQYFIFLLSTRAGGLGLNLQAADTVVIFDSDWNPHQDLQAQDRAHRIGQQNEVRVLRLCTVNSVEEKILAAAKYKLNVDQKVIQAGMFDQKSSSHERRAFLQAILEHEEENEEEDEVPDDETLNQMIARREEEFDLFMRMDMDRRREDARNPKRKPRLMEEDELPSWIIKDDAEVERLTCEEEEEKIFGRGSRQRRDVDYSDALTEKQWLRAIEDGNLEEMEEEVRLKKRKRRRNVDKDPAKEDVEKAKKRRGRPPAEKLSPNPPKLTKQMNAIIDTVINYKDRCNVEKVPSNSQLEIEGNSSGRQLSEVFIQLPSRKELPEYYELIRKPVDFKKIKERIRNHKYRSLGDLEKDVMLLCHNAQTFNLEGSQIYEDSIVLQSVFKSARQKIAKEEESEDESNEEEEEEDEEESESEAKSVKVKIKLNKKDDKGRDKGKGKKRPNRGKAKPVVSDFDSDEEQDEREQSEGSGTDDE
Assay text: SMARCA2 capillary electrophoresis protein assay in RKO cells
Type: cell-based
Set-up: endogenous in cells; host or cells: RKO, NCI-H1568, A549, HCT116, LU99, HCC-364, HCT-15, HCC4006, SK-N-AS
Setup conditions: RKO (18 h); mean ± SD
Procedure: 130,000–200,000 cells were seeded in 24-well plates and incubated until settled down or overnight. Compounds were dissolved in DMSO and added to cells in indicated concentrations using a digital dispenser following an optional media change. […] For SMARCA2/4 half-life determination, 150,000 or 200,000 cells were seeded in 24-well plates. […] For SMARCA2/4 re-synthesis measurements, 200,000 cells were seeded in 24-well plates. […] Proteins were quantified with accompanying Compass Software. […]
Answer in %, number only, no unit symbol.

Sample "Cc1ncsc1-c1ccc([C@H](CCCCN2CCC(c3ccc4c(c3)n(C3CCCC3)c3nc(=O)c5c(Br)cccc5n43)CC2)NC(=O)[C@@H]2C[C@@H](O)CN2C(=O)[C@@H](NC(=O)C2(F)CC2)C(C)(C)C)cc1" ; SMARCA2 Dmax observed: 80

compound "Cc1ncsc1-c1ccc(CNC(=O)[C@@H]2C[C@@H](O)CN2C(=O)[C@@H](NC(=O)C2(F)CC2)C(C)(C)C)c(OCCCCN2CCC(c3ccc4c(c3)n(C3CCCC3)c3nc(=O)c5c(Br)cccc5n43)CC2)c1" , SMARCA2 Dmax observed: 37

Lab note: "Cc1ncsc1-c1ccc([C@H](CCC(C)(C)CCN2CCC(c3ccc4c(c3)n(C3CCCC3)c3nc(=O)c5c(Br)cccc5n43)CC2)NC(=O)[C@@H]2C[C@@H](O)CN2C(=O)[C@@H](NC(=O)C2(F)CC2)C(C)(C)C)cc1" gave SMARCA2 Dmax of 82

Input "Cc1ncsc1-c1ccc([C@H](COC(C)(C)CN2CCC(c3ccc4c(c3)n(C3CCCC3)c3nc(=O)c5c(Br)cccc5n43)CC2)NC(=O)[C@@H]2C[C@@H](O)CN2C(=O)[C@@H](NC(=O)C2(F)CC2)C(C)(C)C)cc1" . Output SMARCA2 Dmax: 76

Please fill in: SMARCA2 Dmax reported for "Cc1ncsc1-c1ccc([C@H](COCCCN2CCC(c3ccc4c(c3)n(C3CCCC3)c3nc(=O)c5c(Br)cccc5n43)CC2)NC(=O)[C@@H]2C[C@@H](O)CN2C(=O)[C@@H](NC(=O)C2(F)CC2)C(C)(C)C)cc1" = 85

"Cc1ncsc1-c1ccc([C@H](CC[C@@H](C)CCN2CCC(c3ccc4c(c3)n(C3CCCC3)c3nc(=O)c5c(Br)cccc5n43)CC2)NC(=O)[C@@H]2C[C@@H](O)CN2C(=O)[C@@H](NC(=O)C2(F)CC2)C(C)(C)C)cc1" yielded SMARCA2 Dmax of 84

Just so you know, measured SMARCA2 Dmax for "Cc1ncsc1-c1ccc(CNC(=O)[C@@H]2C[C@@H](O)CN2C(=O)[C@@H](NC(=O)C2(F)CC2)C(C)(C)C)c(OCCOCCOCCOCCN2CCC(c3ccc4c(c3)n(C3CCCC3)c3nc(=O)c5c(Br)cccc5n43)CC2)c1" came out at 75

SMARCA2 Dmax measured on "Cc1ncsc1-c1ccc(CNC(=O)[C@@H]2C[C@@H](O)CN2C(=O)[C@@H](NC(=O)C2(F)CC2)C(C)(C)C)c(OCCOCCOCCN2CCC(c3ccc4c(c3)n(C3CCCC3)c3nc(=O)c5c(Br)cccc5n43)CC2)c1" = 67
